- Tested on: SKMEL-28 cells
- Run Description: DDA-induced cytotoxicity (cell death)
- Format: cell-based
- Setup Conditions: Homo sapiens, SK-MEL-28; SKMEL-28 (H), BRaf V600E; 72 h; read-out: Cytotox EC50
Reported Property: pEC50
One number for each entry, as −log10 of the molar value.

[Q] Param item = CC(C)CCC[C@@H](C)[C@H]1CC[C@H]2[C@@H]3C[C@@H](NCCc4cnc[nH]4)[C@@]4(O)C[C@@H](O)CC[C@]4(C)[C@H]3CC[C@]12C ; retrieve measured pEC50.
[A] 5.68

---

What LC3B mRNA was measured for each of the following?
- System: SKMEL-28 cells
- Run Description: RT-qPCR of LXR-responsive genes
- Assay type: cell-based, human
- Setup Conditions: SKMEL-28, siLXRβ, 8 h; 2.5 µM DDA, 10 µM 22(R)HC, 1 µM GW, 100 nM TO; vs vehicle
Answers are plain numbers, in fold.

Solved entries:
Compound: CC(C)CCC[C@@H](C)[C@H]1CC[C@H]2[C@@H]3C[C@@H](NCCc4cnc[nH]4)[C@@]4(O)C[C@@H](O)CC[C@]4(C)[C@H]3CC[C@]12C
Reported Property: LC3B mRNA
Observed: 0.9

Compound: O=S(=O)(c1ccccc1)N(CC(F)(F)F)c1ccc(C(O)(C(F)(F)F)C(F)(F)F)cc1
Reported Property: LC3B mRNA
Observed: 0.9

Compound: CC(C)CC[C@@H](O)[C@@H](C)[C@H]1CC[C@H]2[C@@H]3CC=C4C[C@@H](O)CC[C@]4(C)[C@H]3CC[C@]12C [22(R)HC, 22(R)-hydroxycholesterol]
Reported Property: LC3B mRNA
Observed: 1.0

[Q] Param item = O=C(O)Cc1cccc(OCCCN(Cc2cccc(C(F)(F)F)c2Cl)CC(c2ccccc2)c2ccccc2)c1 ; retrieve measured LC3B mRNA.
[A] 1.1

---

- Tested on: WM-266-4 cells
- Run Description: Clonogenicity inhibition
- Assay type: cell-based
- Setup Conditions: Homo sapiens; WM-266-4 (H); 72 h; read-out: Clono IC50
Reported Property: IC50 (µM)
Give bare numbers, in µM.

[Q] Please tell me: IC50 of CC(C)CCC[C@@H](C)[C@H]1CC[C@H]2[C@@H]3C[C@@H](NCCc4cnc[nH]4)[C@@]4(O)C[C@@H](O)CC[C@]4(C)[C@H]3CC[C@]12C , system WM-266-4 cells?
[A] 1.2

---

- Run Description: in vivo
- Parameters: species or system NSG mice
- Setup Conditions: NSG, mouse, iv, 20 mg/kg
Reported Property: clearance (mL/min/kg)
Numbers only, in mL/min/kg.

[Q] Param item = CC(C)CCC[C@@H](C)[C@H]1CC[C@H]2[C@@H]3C[C@@H](NCCc4cnc[nH]4)[C@@]4(O)C[C@@H](O)CC[C@]4(C)[C@H]3CC[C@]12C ; retrieve measured clearance.
[A] 27

---

- Tested on: B16F10 cells
- Run Description: RT-qPCR of LXR-responsive genes
- Assay type: cell-based, mouse
- Setup Conditions: B16F10, siCT, 8 h; 2.5 µM DDA, 10 µM 22(R)HC, 1 µM GW, 100 nM TO; vs vehicle
What SCD1 mRNA was measured for each of the following?
One number for each entry, in fold.

Molecule: CC(C)CCC[C@@H](C)[C@H]1CC[C@H]2[C@@H]3C[C@@H](NCCc4cnc[nH]4)[C@@]4(O)C[C@@H](O)CC[C@]4(C)[C@H]3CC[C@]12C [DDA, Dendrogenin A]
Result Unit: fold
SCD1 mRNA: 1.6
//
Molecule: O=C(O)Cc1cccc(OCCCN(Cc2cccc(C(F)(F)F)c2Cl)CC(c2ccccc2)c2ccccc2)c1 [GW, GW3965]
Result Unit: fold
SCD1 mRNA: 1.9
//
Molecule: O=S(=O)(c1ccccc1)N(CC(F)(F)F)c1ccc(C(O)(C(F)(F)F)C(F)(F)F)cc1 [TO, TO901317]
Result Unit: fold
SCD1 mRNA: 1.6

We next turn to a different molecule, shown below.
[Q] Please tell me: SCD1 mRNA of CC(C)CC[C@@H](O)[C@@H](C)[C@H]1CC[C@H]2[C@@H]3CC=C4C[C@@H](O)CC[C@]4(C)[C@H]3CC[C@]12C [22(R)HC, 22(R)-hydroxycholesterol] , system B16F10 cells?
[A] 1.1
